biological target: Human PD-L1/PD-1 (Homo sapiens); construct: made in house; host or cells: HEK293T; assay: HTRF PD-1-Ig/PD-L1-His binding assay (human PD-L1); details: cluster symbol; read-out: HTRF IC50 cluster
pIC50: −log10 of the molar value. Positions of bridges follow the written chain, without caps; N, C: chain ends. Non-standard residues stand in square brackets, D forms with d. Residues, ends and D or L forms follow the SMILES beside them. dDopa = N[C@H](Cc1ccc(O)c(O)c1)C(=O)O; Phe(2-F) = N[C@@H](Cc1ccccc1F)C(=O)O; Hyp = O=C(O)[C@@H]1C[C@@H](O)CN1; NMeF = CN[C@@H](Cc1ccccc1)C(=O)O; NMeNle = CCCC[C@H](NC)C(=O)O; dPip = O=C(O)[C@H]1CCCCN1; NMeA = CN[C@@H](C)C(=O)O; Dap = NC[C@H](N)C(=O)O; Sar = CNCC(=O)O
Some compounds, each annotated with its measured pIC50.
readout.name: pIC50

CCCC[C@H]1C(=O)N(C)CC(=O)N[C@@H](CC(=O)O)C(=O)N[C@@H](C(C)C)C(=O)N(C)[C@@H](Cc2ccccc2)C(=O)N[C@@H](Cc2ccc(O)cc2)C(=O)N(C)CC(=O)N[C@@H](Cc2c[nH]c3ccccc23)C(=O)N[C@H](Cc2ccc(O)c(O)c2)C(=O)N[C@@H](CC(C)C)C(=O)N[C@H](C(=O)NCC(N)=O)CSCC(=O)N[C@@H](Cc2ccccc2)C(=O)N(C)[C@@H](Cc2ccccc2)C(=O)N1C [Example 3579] ({CH2CO}-F[NMeF][NMeNle][Sar]DV[NMeF]Y[Sar]W[dDopa]LCG-NH2; thioether N-13); 7.52 to 8.17
CCCC[C@H]1C(=O)N(C)[C@@H](CCCC)C(=O)N[C@@H](C)C(=O)N[C@H](C(=O)NCC(N)=O)CSCC(=O)N[C@@H](Cc2ccc(O)cc2)C(=O)N(C)[C@@H](C)C(=O)N[C@@H](CCC(=O)O)C(=O)N2CCC[C@H]2C(=O)N[C@@H](Cc2cnc[nH]2)C(=O)N[C@@H](CC(C)C)C(=O)N2C[C@H](O)C[C@H]2C(=O)N[C@@H](Cc2c[nH]c3ccccc23)C(=O)N[C@@H](CO)C(=O)N[C@@H](Cc2c[nH]c3ccccc23)C(=O)N1C [Example 1169]; 7.52 to 8.17
CCCC[C@H]1C(=O)N(C)CC(=O)N[C@@H](CC(=O)O)C(=O)N[C@@H](C(C)C)C(=O)N(C)[C@@H](Cc2ccccc2)C(=O)N[C@@H](Cc2ccc(O)cc2)C(=O)N(C)CC(=O)N[C@@H](Cc2c[nH]c3ccccc23)C(=O)N[C@@H](Cc2ccc(O)cc2)C(=O)N[C@@H](CC(C)C)C(=O)N[C@H](C(=O)NCC(N)=O)CSCC(=O)N[C@@H](Cc2ccccc2F)C(=O)N(C)[C@@H](Cc2ccccc2)C(=O)N1C [Example 3568] ({CH2CO}-[Phe(2-F)][NMeF][NMeNle][Sar]DV[NMeF]Y[Sar]WYLCG-NH2; thioether N-13); < 7.52
CCCC[C@H]1C(=O)N(C)[C@@H](CCCC)C(=O)N[C@@H](C)C(=O)N[C@H](C(=O)NCC(N)=O)CSCC(=O)N[C@@H](Cc2ccc(O)cc2)C(=O)N(C)[C@@H](C)C(=O)N[C@@H](CC(N)=O)C(=O)N2CCC[C@H]2C(=O)N[C@@H](CN)C(=O)N[C@@H](CCC(=O)O)C(=O)N2C[C@H](O)C[C@H]2C(=O)N[C@@H](Cc2c[nH]c3ccccc23)C(=O)N[C@@H](CO)C(=O)N[C@@H](Cc2c[nH]c3ccccc23)C(=O)N1C [Example 1171] ({CH2CO}-Y[NMeA]NP[Dap]E[Hyp]WSW[NMeNle][NMeNle]ACG-NH2; thioether N-14); 8.17 to 9.41
CCCC[C@H]1C(=O)N(C)CC(=O)N[C@@H](CC(=O)O)C(=O)N[C@@H](C(C)C)C(=O)N(C)[C@@H](Cc2ccccc2)C(=O)N[C@@H](Cc2ccc(O)cc2)C(=O)N2CCCC[C@@H]2C(=O)N[C@@H](Cc2c[nH]c3ccccc23)C(=O)N[C@@H](Cc2ccc(O)cc2)C(=O)N[C@@H](CC(C)C)C(=O)N[C@H](C(=O)NCC(N)=O)CSCC(=O)N[C@@H](Cc2ccccc2)C(=O)N(C)[C@@H](Cc2ccccc2)C(=O)N1C [Example 3572] ({CH2CO}-F[NMeF][NMeNle][Sar]DV[NMeF]Y[dPip]WYLCG-NH2; thioether N-13); 8.17 to 9.41

====

molecular target: LK35.2-hPD-L1 cells / PE-labeled PD-1-Ig (Homo sapiens, UniProt Q9NZQ7); construct: expressed in transfected cells; host or cells: LK35.2 mouse B cell line; assay: LK35.2-hPD-L1 cell binding high-content screening assay; assay type: cell-based; conditions: cluster symbol; cell line of CBA not given (LK35.2-hPD-L1 or 293T-hPD-L1); read-out: CBA IC50 cluster
Sequence (Q9NZQ7 19-290): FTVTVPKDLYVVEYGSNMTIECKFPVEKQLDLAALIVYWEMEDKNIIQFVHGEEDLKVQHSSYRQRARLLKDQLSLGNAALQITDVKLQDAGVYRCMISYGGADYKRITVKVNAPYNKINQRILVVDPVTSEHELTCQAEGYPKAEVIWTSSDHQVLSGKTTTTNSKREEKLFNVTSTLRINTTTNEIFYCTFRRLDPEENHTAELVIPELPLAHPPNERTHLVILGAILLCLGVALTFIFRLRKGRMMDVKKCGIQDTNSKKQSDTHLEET
Positions of bridges follow the written chain, without caps; N, C: chain ends. Non-standard residues stand in square brackets, D forms with d. Residues, ends and D or L forms follow the SMILES beside them. Phe(3,4,5-F3) = N[C@@H](Cc1cc(F)c(F)c(F)c1)C(=O)O; Bta = N[C@@H](Cc1csc2ccccc12)C(=O)O; Hyp = O=C(O)[C@@H]1C[C@@H](O)CN1; NMeF = CN[C@@H](Cc1ccccc1)C(=O)O; NMeNle = CCCC[C@H](NC)C(=O)O; NMeA = CN[C@@H](C)C(=O)O; Orn = NCCC[C@H](N)C(=O)O; Dap = NC[C@H](N)C(=O)O; Sar = CNCC(=O)O
Some compounds, each annotated with its measured IC50.
readout.name: IC50

CCCC[C@H]1C(=O)N(C)CC(=O)N[C@@H](CC(N)=O)C(=O)N[C@@H](C(C)C)C(=O)N(C)[C@@H](Cc2ccccc2)C(=O)N[C@@H](Cc2ccc(O)cc2)C(=O)N(C)CC(=O)N[C@@H](Cc2c[nH]c3ccccc23)C(=O)N[C@@H](Cc2ccc(O)cc2)C(=O)N[C@@H](CCCN)C(=O)N[C@H](C(=O)NCC(N)=O)CSCC(=O)N[C@@H](Cc2cc(F)c(F)c(F)c2)C(=O)N(C)[C@@H](Cc2ccccc2)C(=O)N1C [Example 3181] ({CH2CO}-[Phe(3,4,5-F3)][NMeF][NMeNle][Sar]NV[NMeF]Y[Sar]WY[Orn]CG-NH2; thioether N-13); 0.158 to 4.71 nM
CCCC[C@H]1C(=O)N(C)[C@@H](CCCC)C(=O)N[C@@H](C)C(=O)N[C@H](C(=O)NCC(N)=O)CSCC(=O)N[C@@H](Cc2ccc(O)cc2)C(=O)N2CCC[C@H]2C(=O)N[C@@H](CC(=O)O)C(=O)N2CCC[C@H]2C(=O)N[C@@H](CN)C(=O)N[C@@H](CC(C)C)C(=O)N2C[C@H](O)C[C@H]2C(=O)N[C@@H](Cc2c[nH]c3ccccc23)C(=O)N[C@@H](CO)C(=O)N[C@@H](Cc2c[nH]c3ccccc23)C(=O)N1C [Example 1152] ({CH2CO}-YPDP[Dap]L[Hyp]WSW[NMeNle][NMeNle]ACG-NH2; thioether N-14); 4.78 to 72.9 nM
CCCC[C@H]1C(=O)N(C)[C@@H](CCCC)C(=O)N[C@@H](C)C(=O)N[C@H](C(=O)NCC(N)=O)CSCC(=O)N[C@@H](Cc2ccc(O)cc2)C(=O)N(C)[C@@H](C)C(=O)N[C@@H](CC(N)=O)C(=O)N2CCC[C@H]2C(=O)N[C@@H](Cc2cnc[nH]2)C(=O)N[C@@H](CC(C)C)C(=O)N2CCC[C@H]2C(=O)N[C@@H](Cc2c[nH]c3ccccc23)C(=O)N[C@@H](Cc2ccc(O)cc2)C(=O)N[C@@H](Cc2csc3ccccc23)C(=O)N1C [Example 1050] ({CH2CO}-Y[NMeA]NPHLPWY[Bta][NMeNle][NMeNle]ACG-NH2; thioether N-14); 4.78 to 72.9 nM

====

target: Human PD-L1/PD-1 (Homo sapiens, UniProt Q9NZQ7); construct: made in house; host or cells: HEK293T; experiment: HTRF PD-1-Ig/PD-L1-His binding assay (human PD-L1); settings: cluster symbol; read-out: HTRF IC50 cluster
Sequence (Q9NZQ7 with tags, fused parts or gaps): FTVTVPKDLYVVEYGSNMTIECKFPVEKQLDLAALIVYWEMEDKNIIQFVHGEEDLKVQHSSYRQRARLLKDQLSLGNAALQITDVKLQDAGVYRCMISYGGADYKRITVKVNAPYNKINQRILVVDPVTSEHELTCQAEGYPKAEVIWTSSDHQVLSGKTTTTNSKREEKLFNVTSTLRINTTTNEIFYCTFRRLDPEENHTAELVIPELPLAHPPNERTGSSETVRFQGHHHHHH
pIC50: −log10 of the molar value. Positions of bridges follow the written chain, without caps; N, C: chain ends. Non-standard residues stand in square brackets, D forms with d. Residues, ends and D or L forms follow the SMILES beside them. ξ: configuration not given here. *: point of attachment. Phe(3,4-F2) = N[C@@H](Cc1ccc(F)c(F)c1)C(=O)O; Bta = N[C@@H](Cc1csc2ccccc12)C(=O)O; Hyp = O=C(O)[C@@H]1C[C@@H](O)CN1; NMeF = CN[C@@H](Cc1ccccc1)C(=O)O; 3Pal = N[C@@H](Cc1cccnc1)C(=O)O; NMeNle = CCCC[C@H](NC)C(=O)O; NMeA = CN[C@@H](C)C(=O)O; Nle = CCCC[C@H](N)C(=O)O; Orn = NCCC[C@H](N)C(=O)O; Dab = NCC[C@H](N)C(=O)O; Dap = NC[C@H](N)C(=O)O; ξhCys = NC(CCS)C(=O)O; OtBu = CC(C)(C)O*; Sar = CNCC(=O)O
Some compounds, each annotated with its measured pIC50.
readout.name: pIC50

CCCC[C@@H]1NC(=O)[C@H](CCCC)N(C)C(=O)[C@H](CCCC)N(C)C(=O)[C@H](Cc2c[nH]c3ccccc23)NC(=O)[C@H](CO)NC(=O)[C@H](Cc2c[nH]c3ccccc23)NC(=O)CN(C)C(=O)[C@H](CC(C)C)NC(=O)[C@H](Cc2cnc[nH]2)NC(=O)[C@@H]2CCCN2C(=O)[C@H](CC(N)=O)NC(=O)[C@H](C)N(C)C(=O)[C@H](Cc2ccccc2)NC(=O)CSC[C@@H](C(=O)NCC(N)=O)NC1=O [Example 1071] ({CH2CO}-F[NMeA]NPHL[Sar]WSW[NMeNle][NMeNle][Nle]CG-NH2; thioether N-14); < 7.52
CCCC[C@H]1C(=O)N(C)[C@@H](CCCC)C(=O)N[C@@H](CCCNC(=N)N)C(=O)NC(C(=O)NCC(N)=O)CCSCC(=O)N[C@@H](Cc2ccc(O)cc2)C(=O)N(C)[C@@H](C)C(=O)N[C@@H](CC(N)=O)C(=O)N2CCC[C@H]2C(=O)N[C@@H](Cc2cnc[nH]2)C(=O)N[C@@H](CC(C)C)C(=O)N2CCC[C@H]2C(=O)N[C@@H](Cc2c[nH]c3ccccc23)C(=O)N[C@@H](CO)C(=O)N[C@@H](Cc2c[nH]c3ccccc23)C(=O)N1C (some centres unmarked) [Example 9019] ({CH2CO}-Y[NMeA]NPHLPWSW[NMeNle][NMeNle]R[ξhCys]G-NH2; thioether N-14); 7.52 to 8.17
CCCC[C@H]1C(=O)N(C)CC(=O)N[C@@H](CC(=O)OC(C)(C)C)C(=O)N[C@@H](C(C)C)C(=O)N(C)[C@@H](Cc2ccccc2)C(=O)N[C@@H](Cc2ccc(O)cc2)C(=O)N(C)CC(=O)N[C@@H](Cc2c[nH]c3ccccc23)C(=O)N[C@@H](Cc2ccc(O)cc2)C(=O)N[C@@H](CC(C)C)C(=O)N[C@H](C(=O)NCC(N)=O)CSCC(=O)N[C@@H](Cc2ccccc2)C(=O)N[C@@H](Cc2cccnc2)C(=O)N1C [Example 3604] ({CH2CO}-F[3Pal][NMeNle][Sar]D(OtBu)V[NMeF]Y[Sar]WYLCG-NH2; thioether N-13); < 7.52
CCCC[C@H]1C(=O)N(C)CC(=O)N[C@@H](CC(=O)O)C(=O)N[C@@H](C(C)C)C(=O)N(C)[C@@H](Cc2ccccc2)C(=O)N[C@@H](Cc2ccc(O)cc2)C(=O)N(C)CC(=O)N[C@@H](Cc2c[nH]c3ccccc23)C(=O)N[C@@H](Cc2ccc(O)cc2)C(=O)N[C@@H](CC(C)C)C(=O)N[C@H](C(=O)NCC(N)=O)CSCC(=O)N[C@@H](Cc2ccc(F)c(F)c2)C(=O)N(C)[C@@H](Cc2ccccc2)C(=O)N1C [Example 3130] ({CH2CO}-[Phe(3,4-F2)][NMeF][NMeNle][Sar]DV[NMeF]Y[Sar]WYLCG-NH2; thioether N-13); 7.52 to 8.17
CCCC[C@H]1C(=O)N(C)[C@@H](CCCC)C(=O)N[C@@H](CCCN)C(=O)N[C@H](C(=O)NCC(N)=O)CSCC(=O)N[C@@H](Cc2ccc(O)cc2)C(=O)N2CCC[C@H]2C(=O)N[C@@H](CC(=O)O)C(=O)N2CCC[C@H]2C(=O)N[C@@H](CN)C(=O)N[C@@H](CCC(N)=O)C(=O)N2C[C@H](O)C[C@H]2C(=O)N[C@@H](Cc2c[nH]c3ccccc23)C(=O)N[C@@H](CCN)C(=O)N[C@@H](Cc2csc3ccccc23)C(=O)N1C [Example 1187] ({CH2CO}-YPDP[Dap]Q[Hyp]W[Dab][Bta][NMeNle][NMeNle][Orn]CG-NH2; thioether N-14); 7.52 to 8.17

Data credit: patent US9850283B2
